Source of measurements: PubChem BioAssay

Tested on: Nuclear hormone receptor DAF-12 (Haemonchus contortus)
Assay: H. contortus DAF-12 receptor agonists, confirmation, cell-based, luminescence, HEK293, lit1-tk-luc, triplicate (AID 743032);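 also: 0% = DMSO only wells and 100% = 3 µM Δ7-dafachronic acid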
Conditions: HEK293 hcDAF-12 lit1-tk-luc reporter, at 6.8 µM, stronger effect = higher value, % of Δ7-dafachronic acid response
Some of the results follow.
# label = yes if activation >= 6% else no

Consider the following illustrative entries.
>  <Compound>
CCCCN(C)C(=O)c1ccc2c(c1)N(CC)C(=O)c1ccccc1S2(=O)=O

>  <Assigned Category>
no

$$$$
>  <Compound>
Clc1ccc(-c2cc(-c3ccccn3)on2)c(Cl)c1

>  <Assigned Category>
yes

$$$$
>  <Compound>
Cc1c(C=O)c2ccccc2n1CC(=O)O

>  <Assigned Category>
no

$$$$
>  <Compound>
c1ccc2[nH]c(-c3nc4ccccc4[nH]3)nc2c1

>  <Assigned Category>
no

$$$$
>  <Compound>
O=C(/C=C/c1cnc2ccccc2n1)NC1CCCCCC1

>  <Assigned Category>
no

$$$$

Req: activation >= 6% for NC(=O)Nc1ccccc1C(=O)NCCc1ccccc1 ?
Resp: no

Req: activation >= 6% for c1ccc(-c2cc(-c3ccccc3)[nH]n2)cc1 ?
Resp: yes

Req: activation >= 6% for Nc1ccc(C(=O)Nc2ccccc2N)cc1 ?
Resp: yes

Req: activation >= 6% for NC(=O)c1ccccc1N=Cc1ccc2ccccc2c1 ?
Resp: no

---

Biological target: Nuclear receptor coactivator 2 (Homo sapiens)
Experiment: SRC2 coactivator transcriptional activity inhibitors, confirmation, cell-based, luminescence, HEK293, triplicate (AID 652008);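 also: 0% = DMSO-treated cells and 100% = Gossypol at 36 µM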
Settings: HEK293 GAL4-SRC2 luciferase reporter, at 8.9 µM
Calls of active or inactive are those of the source.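 The calls were made as follows: active = mean inhibition above 46.5%, the solvent-only control mean plus 3 SD; inactive = the rest.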
// allowed return values: active, inactive

>  <Compound>
COc1ccc(-c2noc(CCCCC(=O)N3CCN(c4cc(C)ccc4C)CC3)n2)cc1

>  <Assigned Category>
active

$$$$
>  <Compound>
Cc1cc(Cl)n2c(nc3ccccc32)c1C#N

>  <Assigned Category>
inactive

$$$$
>  <Compound>
CC(C)(C)C(=O)Nc1ccc(N=Nc2ccccc2)cc1

>  <Assigned Category>
active

$$$$
>  <Compound>
CCN(CC)C(=O)C1CCCN(c2ncnc3c2cnn3-c2cccc(C)c2)C1 (configuration not stated)

>  <Assigned Category>
inactive

$$$$

Req: Lab log entry: CN1CCC(=NNc2ncnc3sc4c(c23)CCCC4)CC1 — outcome as called in the assay?
Resp: inactive

Req: Lab log entry: CC(C)N=C(NS(=O)(=O)c1ccccc1)C(Cl)(Cl)Cl — outcome as called in the assay?
Resp: inactive

Req: Lab log entry: CCCSc1ccc2nc(-c3ccccc3)cn2c1 — outcome as called in the assay?
Resp: active

Req: Lab log entry: OCCN1CCN(c2ncnc3ccc(Br)cc23)CC1 — outcome as called in the assay?
Resp: inactive

---

What inhibition was measured for each of the following?
Target: Nuclear receptor coactivator 2 (Homo sapiens)
Experiment: SRC2 coactivator transcriptional activity inhibitors, confirmation, cell-based, luminescence, HEK293, triplicate (AID 652008);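 also: 0% = DMSO-treated cells and 100% = Gossypol at 36 µM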
Details: HEK293 GAL4-SRC2 luciferase reporter, at 8.9 µM, stronger effect = higher value
Numbers only, in %.

Some entries whose results are on file:
>  <Molecule>
CSC1SCC2C(=O)N(C)C(C(C)C)C(=O)OCC(NC(=O)c3cnc4ccccc4n3)C(=O)NC(C)C(=O)N(C)C1C(=O)N(C)C(C(C)C)C(=O)OCC(NC(=O)c1cnc3ccccc3n1)C(=O)NC(C)C(=O)N2C (stereo not given)

>  <inhibition, %>
51.1

$$$$
>  <Molecule>
Cc1cc(NC(=O)Cc2ccccc2)c2ccccc2n1

>  <inhibition, %>
24.6

$$$$
>  <Molecule>
COC(=O)c1c(NC(=O)CCCC(=O)O)sc2c1CCCCC2

>  <inhibition, %>
53.8

$$$$
>  <Molecule>
O=C(CCl)N(c1ccccc1)C1CCCCC1

>  <inhibition, %>
57.8

$$$$
>  <Molecule>
COc1cc(-c2nnc(-c3cc(-c4ccccc4)nc4ccccc34)o2)cc(OC)c1OC

>  <inhibition, %>
-5.55

$$$$
>  <Molecule>
CC(C)(C)c1ccc(C(=O)Nc2ccc(CC(=O)O)cc2)o1

>  <inhibition, %>
92.1

$$$$
>  <Molecule>
COc1cccc(N2CCN(C(=O)c3ccc(CS(=O)c4ccc(Cl)cc4)o3)CC2)c1 (stereo not given)

>  <inhibition, %>
14.5

$$$$
>  <Molecule>
Cc1ccc(S(=O)(=O)NNC(=O)c2sc(=S)n(C)c2C)cc1

>  <inhibition, %>
-17.1

$$$$

For the 6 molecules below, give their inhibition values.
1. CC(=O)c1c(C)[nH]c(C(=O)COc2cc(C)ccc2C(C)C)c1C
2. CC(c1ccccc1)N1CCN(C(=O)CCl)CC1 (stereo not given)
3. Cn1nc(C(F)(F)F)c(C#N)c1N1CCN(c2ccc(F)cc2)CC1
4. CCCCCc1ccc(-c2ccc(/C=C/C(=O)O)cc2)nc1
5. NS(=O)(=O)c1ccc(NC(=O)COc2ccc(C(=O)c3ccc(F)cc3)cc2)cc1
6. Cc1ccc2oc(/N=C(\N)NC(=O)C(C)(C)C)nc2c1

Resp:
1: 43; 2: 43.9; 3: 48.8; 4: 60.2; 5: -2.94; 6: 91.5

---

Biological target: Nuclear receptor coactivator 1 (Homo sapiens)
Test: SRC1 coactivator transcriptional activity inhibitors, confirmation, cell-based, luminescence, quadruplicate (AID 588820);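 also: 0% = DMSO wells and 100% = gossypol 36 µM treated wells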
Settings: HEK293 GAL4-SRC1 luciferase reporter, at 3.6 µM, stronger effect = higher value
What inhibition was measured for each of the following?
One number for each entry, in %.

>  <Compound>
COc1ccc(C2CC(c3ccc(Br)cc3)=NN2C(=O)CSC2=NCCS2)cc1 (stereo unspecified)

>  <Unit Abbrev>
%

>  <inhibition>
7.19

$$$$
>  <Compound>
CC1CCc2nc(N)c(C#N)c(-c3cccnc3)c2C1 (stereo unspecified)

>  <Unit Abbrev>
%

>  <inhibition>
68.7

$$$$
>  <Compound>
O=C(NNc1ccccc1)C(=O)NNc1ccccc1

>  <Unit Abbrev>
%

>  <inhibition>
8.21

$$$$
>  <Compound>
CC(C)c1ccc(-c2nc3ccccc3s2)cc1

>  <Unit Abbrev>
%

>  <inhibition>
56

$$$$
>  <Compound>
Cc1cc(NC(c2ccc(Cl)cc2)c2ccc3cccnc3c2O)no1 (stereo unspecified)

>  <Unit Abbrev>
%

>  <inhibition>
28.2

$$$$
>  <Compound>
Cc1ccc(C2/C(=C(\O)c3ccc4c(c3)OCCO4)C(=O)C(=O)N2Cc2cccnc2)cc1 (stereo unspecified)

>  <Unit Abbrev>
%

>  <inhibition>
-15.5

$$$$
>  <Compound>
CN(C)c1ccncc1C(=O)Nc1ccc(F)cc1F

>  <Unit Abbrev>
%

>  <inhibition>
-3.76

$$$$
>  <Compound>
CC(O)(c1ccccc1)c1nc(-c2cccc(C#N)c2)cs1 (stereo unspecified)

>  <Unit Abbrev>
%

>  <inhibition>
-22.4

$$$$
>  <Compound>
Cc1cc(=O)[nH]c(NN=Cc2cc(Br)ccc2O)n1

>  <Unit Abbrev>
%

>  <inhibition>
51.2

$$$$
>  <Compound>
COC(C(=O)Nc1ccc(S(=O)(=O)Nc2ccc(C)c(C)c2)cc1)c1ccccc1 (stereo unspecified)

>  <Unit Abbrev>
%

>  <inhibition>
-8.72

$$$$

# input for lookup
Req: Which measured inhibition value corresponds to Cc1c(C)n2c(SCC(=O)NCc3ccc4c(c3)OCO4)nnc2[nH]c1=O ?
Resp: -1.32

---

Target: Protein phosphatase methylesterase 1 (Homo sapiens) (UniProt Q9Y570)
Sequence (Q9Y570 whole entry, looked up): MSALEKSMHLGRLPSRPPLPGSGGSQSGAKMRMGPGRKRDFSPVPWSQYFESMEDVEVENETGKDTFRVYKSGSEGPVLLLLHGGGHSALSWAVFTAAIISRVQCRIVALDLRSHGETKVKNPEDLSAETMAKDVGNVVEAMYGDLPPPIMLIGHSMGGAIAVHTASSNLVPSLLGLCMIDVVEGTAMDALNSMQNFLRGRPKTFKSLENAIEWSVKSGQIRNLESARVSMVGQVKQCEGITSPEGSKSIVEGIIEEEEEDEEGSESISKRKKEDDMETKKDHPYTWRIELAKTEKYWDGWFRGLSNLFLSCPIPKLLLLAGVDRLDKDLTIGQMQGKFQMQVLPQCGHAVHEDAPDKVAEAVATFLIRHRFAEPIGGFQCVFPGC
Experiment: PME-1 inhibitor activity retest, confirmation, biochemical, fluorescence polarization, FP-Rh probe, triplicate (AID 2171);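 also: 0% = enzyme with DMSO and 100% = wells lacking PME-1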
Conditions: recombinant PME-1, FP-Rh probe fluorescence polarization; at 5.9 µM; stronger effect = higher value
# label = true if inhibition >= 20% else false

>  <Molecule>
COc1ccc2ccc3c(c2c1)N=C[C@]1(O3)N(C)c2ccccc2C1(C)C

>  <Assay System>
Protein phosphatase methylesterase 1 (Homo sapiens) (UniProt Q9Y570)

>  <Assigned Category>
false

$$$$
>  <Molecule>
COc1ccc2[nH]c3c(N4CCc5ccccc5C4)ncnc3c2c1

>  <Assay System>
Protein phosphatase methylesterase 1 (Homo sapiens) (UniProt Q9Y570)

>  <Assigned Category>
true

$$$$
>  <Molecule>
COc1ccc(-c2csc(NC(=O)Nc3ccccc3)n2)cc1

>  <Assay System>
Protein phosphatase methylesterase 1 (Homo sapiens) (UniProt Q9Y570)

>  <Assigned Category>
true

$$$$
>  <Molecule>
CCc1ccc(OC)c(S(=O)(=O)Nc2ccc(Cc3ccncc3)cc2)c1

>  <Assay System>
Protein phosphatase methylesterase 1 (Homo sapiens) (UniProt Q9Y570)

>  <Assigned Category>
true

$$$$
>  <Molecule>
COc1ccc(C)cc1NC(=O)NNC(=O)c1cc2ccccc2cc1O

>  <Assay System>
Protein phosphatase methylesterase 1 (Homo sapiens) (UniProt Q9Y570)

>  <Assigned Category>
false

$$$$
>  <Molecule>
Brc1csc(/C=N/Nc2nc3ccccc3s2)c1

>  <Assay System>
Protein phosphatase methylesterase 1 (Homo sapiens) (UniProt Q9Y570)

>  <Assigned Category>
true

$$$$
>  <Molecule>
Cc1c(O)ccc(/C=N/Nc2nc(-c3cccnc3)nc3ccccc23)c1O

>  <Assay System>
Protein phosphatase methylesterase 1 (Homo sapiens) (UniProt Q9Y570)

>  <Assigned Category>
true

$$$$
>  <Molecule>
O=C(O)c1ccc(N/N=C/c2ccc(-c3ccc(Cl)cc3Cl)o2)cc1

>  <Assay System>
Protein phosphatase methylesterase 1 (Homo sapiens) (UniProt Q9Y570)

>  <Assigned Category>
true

$$$$

Req: inhibition >= 20% for COc1ccccc1C(=O)NC(=S)Nc1cccc2cc(O)ccc12 ?
Resp: false
